assayedSystem: FAD-linked sulfhydryl oxidase ALR (Homo sapiens) (UniProt P55789)
Sequence (P55789 whole entry, looked up): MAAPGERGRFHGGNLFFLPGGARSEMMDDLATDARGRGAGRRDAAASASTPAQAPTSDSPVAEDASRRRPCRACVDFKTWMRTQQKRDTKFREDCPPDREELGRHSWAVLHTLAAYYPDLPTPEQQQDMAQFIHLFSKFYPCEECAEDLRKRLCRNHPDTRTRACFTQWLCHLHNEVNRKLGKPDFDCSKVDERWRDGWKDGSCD
runDescription: ALR-catalysed DTT oxidation blockers – biochemical, H2O2 detection, HRP-luminol luminescence, single point, primary screen (AID 485317)
protocolConditions: purified ALR, active compounds read high, concentration not given here
In all, about 290,000 compounds went through this assay and about 11,000 (3.8%) were called active. Many of the other results were omitted from the sample, so actives are more common in it than they were.
// reported inhibition for each item listed
A number alone suffices; assume %.

[[record]]
compound = "COc1ccc(-c2nnc(SCC(=O)c3ccc4c(c3)OCCO4)o2)cc1"
unitannotation = "%"
assayresult = 4.53


## Input Form field - read-out: inhibition; system: FAD-linked sulfhydryl oxidase ALR (Homo sapiens) (UniProt P55789); submitted item: CCCCCCc1ccc(O)cc1O
## Output 84.4

## Input Form field - read-out: inhibition; system: FAD-linked sulfhydryl oxidase ALR (Homo sapiens) (UniProt P55789); submitted item: Cc1c(NC(=O)CSc2nnc(-c3cccnc3)n2N)c(=O)n(-c2ccccc2)n1C
## Output 1.09

## Input Form field - read-out: inhibition; system: FAD-linked sulfhydryl oxidase ALR (Homo sapiens) (UniProt P55789); submitted item: N#CCC(=O)N/N=C/c1ccc(SCC(=O)Nc2ccccc2)o1
## Output 93.3

## Input Form field - read-out: inhibition; system: FAD-linked sulfhydryl oxidase ALR (Homo sapiens) (UniProt P55789); submitted item: COc1ccccc1C(CNC(=O)c1cccc(NS(=O)(=O)c2ccc(Br)cc2)c1)N(C)C (centres undefined)
## Output -2.7

## Input Form field - read-out: inhibition; system: FAD-linked sulfhydryl oxidase ALR (Homo sapiens) (UniProt P55789); submitted item: COc1cc(OC)cc(-c2sc3ccc(OC)cc3c2-c2ccc3cc[nH]c3c2)c1
## Output 0.621

## Input Form field - read-out: inhibition; system: FAD-linked sulfhydryl oxidase ALR (Homo sapiens) (UniProt P55789); submitted item: Cc1cc(C)cc(N)c1
## Output 8.46

## Input Form field - read-out: inhibition; system: FAD-linked sulfhydryl oxidase ALR (Homo sapiens) (UniProt P55789); submitted item: COc1ccccc1C(=O)N1CCN=C1SCc1cccnc1
## Output 96.4

## Input Form field - read-out: inhibition; system: FAD-linked sulfhydryl oxidase ALR (Homo sapiens) (UniProt P55789); submitted item: CCOc1ccc(Br)cc1CSC(=N)N
## Output 98.3
